Biological target: MMP-2 (Homo sapiens, UniProt P08253)
Construct: purchased SIGMA PF023
Sequence (P08253 110-660): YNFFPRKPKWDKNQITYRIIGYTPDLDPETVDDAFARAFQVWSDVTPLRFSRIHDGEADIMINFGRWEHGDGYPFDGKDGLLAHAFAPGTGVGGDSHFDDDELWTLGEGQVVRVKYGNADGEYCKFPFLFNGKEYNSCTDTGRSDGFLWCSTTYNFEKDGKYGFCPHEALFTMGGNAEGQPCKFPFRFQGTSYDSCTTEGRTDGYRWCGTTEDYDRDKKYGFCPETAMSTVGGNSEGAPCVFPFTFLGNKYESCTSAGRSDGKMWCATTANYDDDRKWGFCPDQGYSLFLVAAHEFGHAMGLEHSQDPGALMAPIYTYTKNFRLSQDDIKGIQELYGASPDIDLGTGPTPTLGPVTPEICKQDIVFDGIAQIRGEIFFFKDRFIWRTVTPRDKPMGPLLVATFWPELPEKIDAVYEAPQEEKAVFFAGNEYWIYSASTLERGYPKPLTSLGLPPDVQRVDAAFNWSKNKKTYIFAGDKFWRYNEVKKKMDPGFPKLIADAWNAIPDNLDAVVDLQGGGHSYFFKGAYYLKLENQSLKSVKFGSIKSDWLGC
Test: FRET peptide cleavage efficiency with MMP-2
Assay type: biochemical
Conditions: t = 60 min (Table 9)
Square brackets hold non-standard residues; d marks the D form. Ends that are not written are not given here. Tyr(3-NO2) = N[C@@H](Cc1ccc(O)c([N+](=O)[O-])c1)C(=O)O; 2Abz = Nc1ccccc1C(=O)O
Please provide measured % cleavage MMP-2 t = 60 min for the entries that follow.
Answers are plain numbers, in %.

Solved cases below.
seq-string	experimental-value
RQRKVANLVG ([2Abz]RQRKVANLVG[Tyr(3-NO2)]-NH2) [LNK032]	100
SGRVQPLVD (not fully specified (N-terminus, C-terminus)) [LNK047]	5
SGRPLGYFGKL ([2Abz]SGRPLGYFGKL[Tyr(3-NO2)]-NH2) [LNK056]	100
RQRRSPLGLAG ([2Abz]RQRRSPLGLAG[Tyr(3-NO2)]-NH2) [LNK010]	100

Now for another entry.
Query string: Requested field: % cleavage MMP-2 t = 60 min. Item: SGRVANYFGKL ([2Abz]SGRVANYFGKL[Tyr(3-NO2)]-NH2) [LNK054]
Result string: 100

----------
Molecular target: matriptase (Homo sapiens, UniProt Q9Y5Y6)
Construct: purchased R&D Systems 3946-SEB
Sequence (Q9Y5Y6 615-855 limits assumed): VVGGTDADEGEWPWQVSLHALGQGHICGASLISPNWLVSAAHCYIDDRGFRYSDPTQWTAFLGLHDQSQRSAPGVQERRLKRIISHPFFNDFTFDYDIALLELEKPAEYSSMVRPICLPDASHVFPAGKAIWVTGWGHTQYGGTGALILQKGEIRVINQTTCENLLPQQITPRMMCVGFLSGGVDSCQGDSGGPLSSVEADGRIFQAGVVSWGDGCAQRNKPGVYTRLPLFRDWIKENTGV
Assay: FRET peptide cleavage efficiency with matriptase
Type: biochemical
Conditions: t = 60 min; 200 uM linker, 1 ug/ml protease, 37° C., buffer B pH 9.0
Square brackets hold non-standard residues; d marks the D form. Ends that are not written are not given here. Tyr(3-NO2) = N[C@@H](Cc1ccc(O)c([N+](=O)[O-])c1)C(=O)O; 2Abz = Nc1ccccc1C(=O)O
With a cut-off of 90%, any % cleavage Matriptase t = 60 min strictly below it is called Y; any % cleavage Matriptase t = 60 min meeting it or above is called N.

substance	class
KWGKSAPLGLAG ([2Abz]KWGKSAPLGLAG[Tyr(3-NO2)]-NH2) [LNK026]	Y

Query string: hey, is % cleavage Matriptase t = 60 min for ISQYSSAT ([2Abz]ISQYSSAT[Tyr(3-NO2)]-NH2) [LNK070] lower than 90% or not?
Result string: Y

Query string: % cleavage Matriptase t = 60 min under 90%? Item: HSSKLQL ([2Abz]HSSKLQL[Tyr(3-NO2)]-NH2) [LNK078]
Result string: Y
